target: GluN2C-containing NMDA receptors (Homo sapiens); assay: Two-electrode voltage-clamp recordings from Xenopus laevis oocytes, GluN2C; format: cell-based; settings: Table 1; in brackets after EC50; percent of response without compound
Sequence (Q14957 20-1233, other chains not shown): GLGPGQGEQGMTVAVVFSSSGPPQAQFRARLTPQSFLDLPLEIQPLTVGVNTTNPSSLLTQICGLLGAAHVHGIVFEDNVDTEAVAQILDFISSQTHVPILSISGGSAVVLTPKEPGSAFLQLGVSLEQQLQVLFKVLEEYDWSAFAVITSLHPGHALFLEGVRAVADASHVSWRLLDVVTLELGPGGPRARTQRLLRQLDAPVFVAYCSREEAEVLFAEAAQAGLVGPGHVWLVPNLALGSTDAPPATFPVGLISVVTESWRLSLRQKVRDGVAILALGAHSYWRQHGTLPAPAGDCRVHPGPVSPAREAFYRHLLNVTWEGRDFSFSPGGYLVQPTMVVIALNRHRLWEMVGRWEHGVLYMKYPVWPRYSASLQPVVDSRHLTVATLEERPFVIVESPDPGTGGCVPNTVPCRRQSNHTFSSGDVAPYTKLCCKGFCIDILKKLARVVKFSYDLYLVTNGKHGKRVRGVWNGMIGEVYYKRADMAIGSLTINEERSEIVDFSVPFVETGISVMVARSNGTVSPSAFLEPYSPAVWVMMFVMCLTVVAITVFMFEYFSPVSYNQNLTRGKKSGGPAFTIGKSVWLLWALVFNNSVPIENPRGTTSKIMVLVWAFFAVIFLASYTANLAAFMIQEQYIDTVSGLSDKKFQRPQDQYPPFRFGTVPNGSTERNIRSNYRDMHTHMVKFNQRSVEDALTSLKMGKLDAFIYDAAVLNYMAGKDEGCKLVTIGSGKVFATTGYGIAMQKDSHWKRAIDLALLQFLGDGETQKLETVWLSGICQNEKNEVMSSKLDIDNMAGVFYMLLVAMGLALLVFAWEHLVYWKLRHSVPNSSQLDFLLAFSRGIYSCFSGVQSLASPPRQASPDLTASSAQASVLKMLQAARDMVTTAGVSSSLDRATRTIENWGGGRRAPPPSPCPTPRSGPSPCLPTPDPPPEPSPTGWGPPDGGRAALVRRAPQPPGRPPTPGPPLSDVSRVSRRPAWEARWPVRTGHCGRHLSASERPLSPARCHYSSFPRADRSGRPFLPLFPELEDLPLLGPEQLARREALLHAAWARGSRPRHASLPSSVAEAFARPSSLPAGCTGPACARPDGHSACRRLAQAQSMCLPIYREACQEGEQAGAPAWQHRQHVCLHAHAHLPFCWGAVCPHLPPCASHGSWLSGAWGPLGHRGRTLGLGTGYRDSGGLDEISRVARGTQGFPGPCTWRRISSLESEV
Quantity name: maximal potentiation Glu N2C (%)

[[record]]
molecular_string = "Cc1sc2ncn(CC(=O)N3CCCC3)c(=O)c2c1-c1cccc(C(F)(F)F)c1"
assayed_system = "GluN2C-containing NMDA receptors (Homo sapiens)"
endpoint_value = 748

[[record]]
molecular_string = "Cc1sc2ncn(CC(=O)N3CCCC3)c(=O)c2c1-c1ccc(F)cc1"
assayed_system = "GluN2C-containing NMDA receptors (Homo sapiens)"
endpoint_value = 448

[[record]]
molecular_string = "O=C(Cn1cnc2scc(-c3ccc(I)cc3)c2c1=O)N1CCCC1"
assayed_system = "GluN2C-containing NMDA receptors (Homo sapiens)"
endpoint_value = 369

[[record]]
molecular_string = "Cc1ccc(-c2c(C)sc3ncn(CC(=O)N4CCCC4)c(=O)c23)cc1C"
assayed_system = "GluN2C-containing NMDA receptors (Homo sapiens)"
endpoint_value = 267

[[record]]
molecular_string = "Cc1sc2ncn(CC(=O)N3CCCC3)c(=O)c2c1-c1cc(Br)cc(Br)c1"
assayed_system = "GluN2C-containing NMDA receptors (Homo sapiens)"
endpoint_value = 195


* * *

Parameter I10 μM/ICONTROL (mean ± SEM, %) Glu N2D: see the listing below.
biological target: UniProtKB O15399; experiment: Two-electrode voltage-clamp recordings from Xenopus laevis oocytes, GluN2D; type: cell-based; conditions: 10 μM test compound with glutamate 100 μM and glycine 30 μM; percent of response without compound; Tables 1-5
Quantity name: I10 μM/ICONTROL (mean ± SEM, %) Glu N2D

[[record]]
molecular_string = "Cc1sc2ncn(CC(=O)N3CCCC3)c(=O)c2c1-c1cccc(C(F)(F)F)c1"
endpoint_value = 480

[[record]]
molecular_string = "Cc1sc2ncn(CC(=O)C3CCCC3)c(=O)c2c1-c1cccc(I)c1"
endpoint_value = 133

[[record]]
molecular_string = "Cc1sc2ncn(CC(=O)N3CCCC3)c(=O)c2c1-c1ccccc1C(F)(F)F"
endpoint_value = 94

[[record]]
molecular_string = "CCOC(=O)Cn1cnc2sc(C)c(-c3cccc(Cl)c3)c2c1=O"
endpoint_value = 136

[[record]]
molecular_string = "Cc1sc2ncn(CC(=O)N3CCCC3)c(=O)c2c1-c1ccccc1"
endpoint_value = 148


* * *

target: GluN2B-containing NMDA receptors (Homo sapiens, UniProt Q13224); assay: Two-electrode voltage-clamp recordings from Xenopus laevis oocytes, GluN2B; settings: Table 1; glutamate 100 μM, glycine 30 μM; Hill fit; read-out: EC50 Glu N2B
Sequence (Q13224 27-1484, other chains not shown): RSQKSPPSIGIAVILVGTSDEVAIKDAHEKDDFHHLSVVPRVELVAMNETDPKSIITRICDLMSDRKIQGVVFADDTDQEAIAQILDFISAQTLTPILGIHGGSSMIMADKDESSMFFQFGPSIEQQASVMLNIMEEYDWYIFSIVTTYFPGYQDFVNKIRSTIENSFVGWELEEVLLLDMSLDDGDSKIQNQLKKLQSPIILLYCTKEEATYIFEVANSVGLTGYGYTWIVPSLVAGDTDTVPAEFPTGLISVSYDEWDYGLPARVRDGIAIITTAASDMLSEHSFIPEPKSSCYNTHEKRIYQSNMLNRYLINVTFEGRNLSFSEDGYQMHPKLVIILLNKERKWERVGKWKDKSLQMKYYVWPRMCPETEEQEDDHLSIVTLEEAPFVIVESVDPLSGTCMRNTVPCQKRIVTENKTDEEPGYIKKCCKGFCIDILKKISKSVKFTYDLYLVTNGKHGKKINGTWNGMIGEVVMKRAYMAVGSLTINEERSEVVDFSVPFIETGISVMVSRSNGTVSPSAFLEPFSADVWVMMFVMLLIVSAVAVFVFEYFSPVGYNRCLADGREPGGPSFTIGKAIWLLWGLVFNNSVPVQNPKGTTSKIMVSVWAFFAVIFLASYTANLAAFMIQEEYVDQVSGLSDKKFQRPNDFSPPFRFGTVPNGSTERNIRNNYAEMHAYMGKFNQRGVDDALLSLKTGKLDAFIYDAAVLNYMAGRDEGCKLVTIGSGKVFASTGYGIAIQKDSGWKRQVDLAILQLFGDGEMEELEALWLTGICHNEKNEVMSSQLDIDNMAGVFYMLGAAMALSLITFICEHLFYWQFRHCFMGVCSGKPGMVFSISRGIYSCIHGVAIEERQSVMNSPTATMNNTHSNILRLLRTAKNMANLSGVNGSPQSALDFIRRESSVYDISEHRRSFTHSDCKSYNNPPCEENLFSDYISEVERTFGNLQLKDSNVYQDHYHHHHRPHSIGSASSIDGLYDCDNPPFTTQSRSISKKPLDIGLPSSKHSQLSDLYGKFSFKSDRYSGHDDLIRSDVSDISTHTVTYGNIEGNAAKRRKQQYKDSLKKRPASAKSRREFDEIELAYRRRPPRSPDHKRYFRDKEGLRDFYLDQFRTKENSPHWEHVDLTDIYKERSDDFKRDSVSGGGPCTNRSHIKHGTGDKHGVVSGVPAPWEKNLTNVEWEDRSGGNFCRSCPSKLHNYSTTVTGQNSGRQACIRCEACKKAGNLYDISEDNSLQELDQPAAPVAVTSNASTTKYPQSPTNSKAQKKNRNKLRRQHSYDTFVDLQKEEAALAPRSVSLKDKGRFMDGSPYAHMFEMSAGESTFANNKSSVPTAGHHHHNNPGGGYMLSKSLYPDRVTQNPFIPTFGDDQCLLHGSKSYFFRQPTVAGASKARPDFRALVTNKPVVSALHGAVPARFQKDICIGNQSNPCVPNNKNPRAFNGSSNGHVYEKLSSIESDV
Quantity name: log10 of EC50 (log10 of the value in µM)

[[record]]
molecular_string = "CCc1ccc(-c2csc3ncn(CC(=O)N4CCCC4)c(=O)c23)cc1"
endpoint_value = 1.59

[[record]]
molecular_string = "Cc1sc2ncn(CC(=O)N3CCCC3)c(=O)c2c1-c1ccc(Br)c(Br)c1"
endpoint_value = 0.72

[[record]]
molecular_string = "Cc1sc2ncn(CC(=O)N3CCCC3)c(=O)c2c1-c1ccc2c(c1)CCC2"
endpoint_value = 1.06

[[record]]
molecular_string = "Cc1sc2ncn(CC(=O)N3CCCC3)c(=O)c2c1-c1cc(Br)cc(Br)c1"
endpoint_value = 0.03

[[record]]
molecular_string = "CC(C)c1ccc(-c2csc3ncn(CC(=O)N4CCCC4)c(=O)c23)cc1"
endpoint_value = 1.52

[[record]]
molecular_string = "CCOc1ccc(-c2c(C)sc3ncn(CC(=O)N4CCCC4)c(=O)c23)cc1"
endpoint_value = 1.18


* * *

Parameter I10 μM/ICONTROL (mean ± SEM, %) Glu N2D: see the listing below.
target: GluN2D-containing NMDA receptors (Homo sapiens, UniProt O15399); test: Two-electrode voltage-clamp recordings from Xenopus laevis oocytes, GluN2D; assay type: cell-based; details: 10 μM test compound with glutamate 100 μM and glycine 30 μM; percent of response without compound; Tables 1-5
Sequence (O15399 28-1336, other chains not shown): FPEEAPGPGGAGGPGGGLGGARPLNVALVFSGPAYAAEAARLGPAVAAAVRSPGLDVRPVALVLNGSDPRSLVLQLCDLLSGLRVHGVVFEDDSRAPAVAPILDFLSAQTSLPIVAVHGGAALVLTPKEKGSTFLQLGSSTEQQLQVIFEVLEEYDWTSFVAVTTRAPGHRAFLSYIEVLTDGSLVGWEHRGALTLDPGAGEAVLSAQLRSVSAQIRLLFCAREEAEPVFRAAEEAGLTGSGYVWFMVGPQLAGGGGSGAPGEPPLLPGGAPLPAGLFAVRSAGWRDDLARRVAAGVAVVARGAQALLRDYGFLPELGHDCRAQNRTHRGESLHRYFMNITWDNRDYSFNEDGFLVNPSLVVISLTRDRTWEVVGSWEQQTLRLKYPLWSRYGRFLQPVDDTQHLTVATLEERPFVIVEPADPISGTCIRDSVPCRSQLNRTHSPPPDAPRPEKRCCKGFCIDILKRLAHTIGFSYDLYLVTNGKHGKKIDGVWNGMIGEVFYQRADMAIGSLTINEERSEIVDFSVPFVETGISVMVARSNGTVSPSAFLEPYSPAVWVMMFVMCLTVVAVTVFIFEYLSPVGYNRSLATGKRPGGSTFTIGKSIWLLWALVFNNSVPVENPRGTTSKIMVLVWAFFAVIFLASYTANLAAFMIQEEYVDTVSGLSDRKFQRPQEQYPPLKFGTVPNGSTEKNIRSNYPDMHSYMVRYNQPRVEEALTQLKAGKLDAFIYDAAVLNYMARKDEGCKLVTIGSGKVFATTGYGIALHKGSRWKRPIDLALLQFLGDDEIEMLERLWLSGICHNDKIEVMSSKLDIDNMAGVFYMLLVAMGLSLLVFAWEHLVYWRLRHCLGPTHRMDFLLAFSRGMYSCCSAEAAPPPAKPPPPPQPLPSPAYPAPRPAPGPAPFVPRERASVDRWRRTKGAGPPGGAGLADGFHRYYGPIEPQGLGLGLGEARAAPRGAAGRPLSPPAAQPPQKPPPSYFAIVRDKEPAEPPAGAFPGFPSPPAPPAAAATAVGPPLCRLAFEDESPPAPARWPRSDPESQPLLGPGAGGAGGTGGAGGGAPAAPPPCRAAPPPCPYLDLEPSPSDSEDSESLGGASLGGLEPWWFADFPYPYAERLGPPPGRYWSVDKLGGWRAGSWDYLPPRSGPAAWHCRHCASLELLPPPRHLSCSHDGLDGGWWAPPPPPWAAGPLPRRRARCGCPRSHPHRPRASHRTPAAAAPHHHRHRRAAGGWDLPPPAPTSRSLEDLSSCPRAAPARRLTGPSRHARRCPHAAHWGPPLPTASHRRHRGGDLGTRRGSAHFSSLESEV
Quantity name: I10 μM/ICONTROL (mean ± SEM, %) Glu N2D

[[record]]
molecule = "CCOC(=O)CNC(=O)Cn1cnc2sc(C)c(-c3ccc(Br)cc3)c2c1=O [1 / 4-Br—Ph / Me / —NHCH2COOEt]"
assayed_system = "GluN2D-containing NMDA receptors (Homo sapiens, UniProt O15399)"
endpoint_value = 104

[[record]]
molecule = "Cc1sc2ncn(CC(=O)N3CCCCC3)c(=O)c2c1-c1ccc(Br)c(Br)c1 [1 / 3,4-Br—Ph / Me / —Npiperidine]"
assayed_system = "GluN2D-containing NMDA receptors (Homo sapiens, UniProt O15399)"
endpoint_value = 143

[[record]]
molecule = "Cc1sc2ncn(CC(=O)N3CCCCC3)c(=O)c2c1-c1cccc(I)c1 [1 / 3-I—Ph / Me / —Npiperidine]"
assayed_system = "GluN2D-containing NMDA receptors (Homo sapiens, UniProt O15399)"
endpoint_value = 124

[[record]]
molecule = "Cc1sc2ncn(CC(=O)SC(C)(C)C)c(=O)c2c1-c1cccc(Cl)c1 [1 / 3-Cl—Ph / Me / StBu]"
assayed_system = "GluN2D-containing NMDA receptors (Homo sapiens, UniProt O15399)"
endpoint_value = 73

[[record]]
molecule = "Cc1sc2ncn(Cc3cnnn3CCC3OCCCO3)c(=O)c2c1-c1cccc(Cl)c1"
assayed_system = "GluN2D-containing NMDA receptors (Homo sapiens, UniProt O15399)"
endpoint_value = 91

[[record]]
molecule = "[N-]=[N+]=Nc1ccc(-c2csc3ncn(CC(=O)N4CCCC4)c(=O)c23)cc1 [4-N3—Ph / H]"
assayed_system = "GluN2D-containing NMDA receptors (Homo sapiens, UniProt O15399)"
endpoint_value = 147

[[record]]
molecule = "Cc1sc2ncn(CC(=O)N3CCCC3)c(=O)c2c1-c1cc(I)cc(I)c1 [3,5-I—Ph / Me]"
assayed_system = "GluN2D-containing NMDA receptors (Homo sapiens, UniProt O15399)"
endpoint_value = 151

[[record]]
molecule = "Cc1sc2ncn(CC(=O)N3CCCC3)c(=O)c2c1-c1ccc(N)cc1 [4-NH2—Ph / Me]"
assayed_system = "GluN2D-containing NMDA receptors (Homo sapiens, UniProt O15399)"
endpoint_value = 103

[[record]]
molecule = "CCOC(=O)CCn1cnc2sc(C)c(-c3cccc(Cl)c3)c2c1=O [2 / 3-Cl—Ph / Me / OEt]"
assayed_system = "GluN2D-containing NMDA receptors (Homo sapiens, UniProt O15399)"
endpoint_value = 97

[[record]]
molecule = "Cc1sc2ncn(CCC(=O)N3CCCC3)c(=O)c2c1-c1cccc(Cl)c1 [2 / 3-Cl—Ph / Me / —Npyrrolidine]"
assayed_system = "GluN2D-containing NMDA receptors (Homo sapiens, UniProt O15399)"
endpoint_value = 90

[[record]]
molecule = "Cc1sc2ncn(CC(=O)N3CCCC3)c(=O)c2c1-c1ccc(N=[N+]=[N-])cc1 [4-N3—Ph / Me]"
assayed_system = "GluN2D-containing NMDA receptors (Homo sapiens, UniProt O15399)"
endpoint_value = 128

[[record]]
molecule = "Cc1sc2ncn(CC(=O)N(C)C)c(=O)c2c1-c1ccc(Br)cc1 [1 / 4-Br—Ph / Me / —N(Me)2]"
assayed_system = "GluN2D-containing NMDA receptors (Homo sapiens, UniProt O15399)"
endpoint_value = 105

[[record]]
molecule = "C#CCn1cnc2sc(C)c(-c3cccc(Cl)c3)c2c1=O [—C≡CH]"
assayed_system = "GluN2D-containing NMDA receptors (Homo sapiens, UniProt O15399)"
endpoint_value = 98

[[record]]
molecule = "Cc1sc2ncn(CC(=O)N3CCCC3)c(=O)c2c1-c1cccc(Br)c1 [3-Br—Ph / Me]"
assayed_system = "GluN2D-containing NMDA receptors (Homo sapiens, UniProt O15399)"
endpoint_value = 239

[[record]]
molecule = "Cc1sc2ncn(CC(=O)c3ccccc3)c(=O)c2c1-c1cccc(I)c1 [1 / 3-I—Ph / Me / Ph]"
assayed_system = "GluN2D-containing NMDA receptors (Homo sapiens, UniProt O15399)"
endpoint_value = 133

[[record]]
molecule = "Cc1sc2ncn(CC(=O)O)c(=O)c2c1-c1cccc(Cl)c1 [1 / 3-Cl—Ph / Me / OH]"
assayed_system = "GluN2D-containing NMDA receptors (Homo sapiens, UniProt O15399)"
endpoint_value = 89

[[record]]
molecule = "COCCn1cc(Cn2cnc3sc(C)c(-c4cccc(Cl)c4)c3c2=O)nn1"
assayed_system = "GluN2D-containing NMDA receptors (Homo sapiens, UniProt O15399)"
endpoint_value = 84

[[record]]
molecule = "Cc1sc2ncn(CC(=O)N3CCCC3)c(=O)c2c1-c1cccc(-n2ccnc2)c1 [3-N-imidazolyl-Ph / Me]"
assayed_system = "GluN2D-containing NMDA receptors (Homo sapiens, UniProt O15399)"
endpoint_value = 99

[[record]]
molecule = "Cc1sc2ncn(CC(=O)N3CCCC3)c(=O)c2c1-c1ccc(Br)c(Br)c1 [3,4-Br—Ph / Me]"
assayed_system = "GluN2D-containing NMDA receptors (Homo sapiens, UniProt O15399)"
endpoint_value = 292

[[record]]
molecule = "Cc1sc2ncn(CC(=O)N3CCC[C@H]3C(=O)O)c(=O)c2c1-c1ccc(Cl)cc1 [1 / 4-Cl—Ph / Me / —Nproline (S)]"
assayed_system = "GluN2D-containing NMDA receptors (Homo sapiens, UniProt O15399)"
endpoint_value = 97

[[record]]
molecule = "Cc1sc2ncn(CC(=O)N3CCCC3)c(=O)c2c1-c1ccc(O)cc1 [4-OH—Ph / Me]"
assayed_system = "GluN2D-containing NMDA receptors (Homo sapiens, UniProt O15399)"
endpoint_value = 99

[[record]]
molecule = "Cc1sc2ncn(CC(=O)c3cccs3)c(=O)c2c1-c1cccc(Cl)c1 [1 / 3-Cl—Ph / Me / 2-thiophene]"
assayed_system = "GluN2D-containing NMDA receptors (Homo sapiens, UniProt O15399)"
endpoint_value = 137

[[record]]
molecule = "Cc1sc2ncn(CC(=O)N3CCCC3)c(=O)c2c1-c1cccc(Cl)c1 [3-Cl—Ph / Me]"
assayed_system = "GluN2D-containing NMDA receptors (Homo sapiens, UniProt O15399)"
endpoint_value = 190

[[record]]
molecule = "Cc1sc2ncn(CC(=O)N3CCCC3)c(=O)c2c1-c1ccc2c(c1)CCC2 [3,4-(CH2)3—Ph / Me]"
assayed_system = "GluN2D-containing NMDA receptors (Homo sapiens, UniProt O15399)"
endpoint_value = 165

[[record]]
molecule = "COC(=O)[C@@H]1CCCN1C(=O)Cn1cnc2sc(C)c(-c3ccc(Br)cc3)c2c1=O"
assayed_system = "GluN2D-containing NMDA receptors (Homo sapiens, UniProt O15399)"
endpoint_value = 147

[[record]]
molecule = "COc1cccc(C(=O)Cn2cnc3sc(C)c(-c4cccc(I)c4)c3c2=O)c1 [1 / 3-I—Ph / Me / 3-OMe—Ph]"
assayed_system = "GluN2D-containing NMDA receptors (Homo sapiens, UniProt O15399)"
endpoint_value = 99

[[record]]
molecule = "CSc1ccc(-c2csc3ncn(CC(=O)N4CCCC4)c(=O)c23)cc1 [4-MeS—Ph / H]"
assayed_system = "GluN2D-containing NMDA receptors (Homo sapiens, UniProt O15399)"
endpoint_value = 96

[[record]]
molecule = "COc1ccc(C(=O)Cn2cnc3sc4c(c3c2=O)CCCC4)c(OC)c1 [2,4-OMe]"
assayed_system = "GluN2D-containing NMDA receptors (Homo sapiens, UniProt O15399)"
endpoint_value = 90

[[record]]
molecule = "CON(C)C(=O)Cn1cnc2sc(C)c(-c3cccc(I)c3)c2c1=O [1 / 3-I—Ph / Me / —N(OMe)Me]"
assayed_system = "GluN2D-containing NMDA receptors (Homo sapiens, UniProt O15399)"
endpoint_value = 119

[[record]]
molecule = "Cc1sc2ncn(CCC(=O)Oc3ccccc3)c(=O)c2c1-c1cccc(Cl)c1 [2 / 3-Cl—Ph / Me / OPh]"
assayed_system = "GluN2D-containing NMDA receptors (Homo sapiens, UniProt O15399)"
endpoint_value = 88

[[record]]
molecule = "O=C(Cn1cnc2sc3c(c2c1=O)CCCC3)c1ccc([N+](=O)[O-])cc1 [Compound 4-NO2]"
assayed_system = "GluN2D-containing NMDA receptors (Homo sapiens, UniProt O15399)"
endpoint_value = 97


Data origin: patent US12006328B2
